subject-of-test: furin (endogenous protease) in U20S cells (Homo sapiens)
Construct: the endogenous protease cleaves GFP; endogenous in cells; host or cells: U2OS cells transduced with a BacMam reporter
assay-protocol: Furin cell-based assay (image-based, Golgi-targeted GFP with BMP10 furin/PCSK cleavage site)
study-conditions: 24-hour incubation, read-out: furin golgi cell pXC50 (converted)
Structures can show the parent of a compound that is named as a salt.
hey, just use Yes if measured EC50 is less than 0.01 µM, otherwise No

{"columns": ["molecule", "answer-label"],
 "data": [
  ["CN1CCN(c2ncc(Oc3cc(CN4CCC(CP(C)(C)=O)CC4)cc(-c4cc(Cl)cc(Cl)c4)n3)cn2)CC1 [Example 320, hydrochloride]", "No"],
  ["CC(O)CC1CCN(Cc2cc(Oc3cnc(N4CCN(C)CC4)nc3)nc(-c3cc(Cl)cc(Cl)c3)c2)CC1 (stereo not drawn)", "Yes"],
  ["CC(=O)NCC1CCN(Cc2cc(Oc3cnc(N4CCN(CCO)CC4)nc3)nc(-c3cc(F)cc(Cl)c3)c2)CC1", "No"],
  ["CC(=O)NCC1CCN(Cc2cc(Oc3ccc(N4CCN(CCC(N)=O)CC4)nc3)nc(-c3cc(Cl)cc(Cl)c3)c2)CC1 [Example 13, hydrochloride]", "Yes"],
  ["NC(=O)CCN1CCN(Cc2cc(Oc3cnc(N4CCN(CCC(=O)O)CC4)nc3)nc(-c3cc(Cl)cc(Cl)c3)c2)CC1", "No"]
]}

Please examine the following record next.
INPUT: I'd appreciate it if you could check whether CC(=O)NCC1CCN(Cc2cc(Oc3ccc(N4CCN(CCOC(N)=O)CC4)nc3)nc(-c3cc(Cl)cc(Cl)c3)c2)CC1 has EC50 smaller than 0.01 µM.
OUTPUT: Yes

---

subject-of-test: furin (endogenous protease) in U20S cells (Homo sapiens, UniProt P09958)
Construct: the endogenous protease cleaves GFP; endogenous in cells; host or cells: U2OS cells transduced with a BacMam reporter
Sequence (P09958 108-794): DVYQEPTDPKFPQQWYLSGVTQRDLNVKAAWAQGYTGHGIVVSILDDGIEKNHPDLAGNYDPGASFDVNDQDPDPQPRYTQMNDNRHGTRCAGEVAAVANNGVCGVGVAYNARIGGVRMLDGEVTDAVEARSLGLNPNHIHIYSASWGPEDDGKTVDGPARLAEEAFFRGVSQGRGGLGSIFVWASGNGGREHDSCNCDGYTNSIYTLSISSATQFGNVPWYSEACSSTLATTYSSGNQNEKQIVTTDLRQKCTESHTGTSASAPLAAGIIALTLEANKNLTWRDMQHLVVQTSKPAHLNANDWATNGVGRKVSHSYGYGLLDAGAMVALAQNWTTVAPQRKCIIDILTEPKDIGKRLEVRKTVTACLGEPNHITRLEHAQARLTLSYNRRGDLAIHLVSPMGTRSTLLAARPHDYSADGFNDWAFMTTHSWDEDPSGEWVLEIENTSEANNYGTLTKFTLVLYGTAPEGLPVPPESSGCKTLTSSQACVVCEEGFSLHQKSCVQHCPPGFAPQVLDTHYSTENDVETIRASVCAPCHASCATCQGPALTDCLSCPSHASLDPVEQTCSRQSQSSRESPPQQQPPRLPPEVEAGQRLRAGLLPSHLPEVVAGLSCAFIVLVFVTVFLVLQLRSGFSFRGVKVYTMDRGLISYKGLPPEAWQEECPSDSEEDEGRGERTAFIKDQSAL
assay-protocol: Furin cell-based assay (image-based, Golgi-targeted GFP with BMP10 furin/PCSK cleavage site)
study-conditions: 24-hour incubation, read-out: furin golgi cell pXC50 (converted)
hey, just use criterion met if measured EC50 is less than 20 nM, otherwise criterion not met

Worked cases, answers included:
{"columns": ["compound", "answer-label"],
 "data": [
  ["NS(=O)(=O)CCC1CCN(Cc2cc(Oc3ccc(N4CCN(CCC(=O)O)CC4)nc3)nc(-c3cc(Cl)cc(Cl)c3)c2)CC1", "criterion not met"],
  ["CNCc1cc(Oc2ccc(N3CCCNCC3)nc2)cc(-c2cc(Cl)cc(Cl)c2)c1", "criterion not met"],
  ["CC(=O)NCC1CCN(Cc2cc(-c3cc(Cl)cc(Cl)c3)nc(Oc3cnc(N4CCN(CCC(C)C(=O)O)CC4)nc3)c2F)CC1 (stereo not shown)", "criterion met"],
  ["CC(=O)NCC1CCN(Cc2cc(Oc3cnc(N4CCN(CCC(N)=O)CC4)nc3)nc(-c3cc(F)c(F)c(Cl)c3)c2)CC1", "criterion not met"]
]}

INPUT: I'd appreciate it if you could check whether CNC(=O)NCC1CCN(Cc2cc(Oc3cnc(N4CCN(CCC(C)O)CC4)nc3)nc(-c3cc(Cl)cc(Cl)c3)c2)CC1 (stereo not shown) has EC50 smaller than 20 nM.
OUTPUT: criterion met

INPUT: I'd appreciate it if you could check whether CN1CCN(c2ncc(Oc3cc(CN4CCC(CCB(O)O)CC4)cc(-c4cc(Cl)cc(Cl)c4)n3)cn2)CC1 has EC50 smaller than 20 nM.
OUTPUT: criterion met

---

subject-of-test: Furin (108-574-Tev-Flag-His) enzyme (Homo sapiens, UniProt P09958)
Construct: Furin (108-574-Tev-Flag-His) enzyme was expressed and purified from CHO cells; TEV cleavage site (C); FLAG (C); His (C); made in house; host or cells: CHO cells
Sequence (P09958 108-574): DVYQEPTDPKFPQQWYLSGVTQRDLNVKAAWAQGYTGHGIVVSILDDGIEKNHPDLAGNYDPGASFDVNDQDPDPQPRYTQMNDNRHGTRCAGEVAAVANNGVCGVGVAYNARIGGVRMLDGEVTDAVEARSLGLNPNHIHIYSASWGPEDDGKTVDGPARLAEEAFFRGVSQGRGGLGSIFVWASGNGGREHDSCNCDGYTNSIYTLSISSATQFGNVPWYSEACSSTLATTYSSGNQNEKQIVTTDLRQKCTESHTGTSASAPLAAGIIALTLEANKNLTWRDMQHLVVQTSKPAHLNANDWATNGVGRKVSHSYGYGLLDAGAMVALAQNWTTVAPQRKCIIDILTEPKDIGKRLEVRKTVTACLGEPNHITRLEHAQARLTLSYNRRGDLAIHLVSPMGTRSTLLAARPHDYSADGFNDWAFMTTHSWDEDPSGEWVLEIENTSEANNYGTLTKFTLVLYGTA
assay-protocol: Furin enzyme assay
Format: biochemical
Structures can show the parent of a compound that is named as a salt.
readout-kind: furin enzyme pIC50
Provide a numeric answer; units are not to be included.

INPUT: // query furin enzyme pIC50 value for entry CC(=O)NCC1CCN(Cc2cc(Oc3ccc(N4CCN(C(C)CC(=O)O)CC4)nc3)nc(-c3cc(Cl)cc(Cl)c3)c2)CC1 (centres unmarked)
OUTPUT: 9.5

INPUT: // query furin enzyme pIC50 value for entry CNC(=O)NCC1CCN(Cc2cc(Oc3cnc(N4CCN(CCC(N)=O)CC4)nc3)nc(-c3cc(Cl)cc(Cl)c3)c2)CC1
OUTPUT: 9.2

INPUT: // query furin enzyme pIC50 value for entry CN1CCN(c2ccc(Oc3nc(-c4cc(Cl)cc(Cl)c4)cc(CN4CCC(CC(=O)O)CC4)c3F)cn2)CC1 [Example 377, hydrochloride]
OUTPUT: 8.6

INPUT: // query furin enzyme pIC50 value for entry CNC(=O)OCC1CCN(Cc2cc(Oc3cnc(N4CCN(CCO)CC4)nc3)nc(-c3cc(Cl)cc(Cl)c3)c2)CC1
OUTPUT: 9.4

---

subject-of-test: furin (endogenous protease) in U20S cells (Homo sapiens)
Construct: the endogenous protease cleaves GFP; endogenous in cells; host or cells: U2OS cells transduced with a BacMam reporter
assay-protocol: Furin cell-based assay (image-based, Golgi-targeted GFP with BMP10 furin/PCSK cleavage site)
study-conditions: 24-hour incubation, read-out: furin golgi cell pXC50 (converted)
Structures can show the parent of a compound that is named as a salt.
hey, just use met if measured EC50 is less than 0.03 µM, otherwise not met

Worked cases, answers included:
{"columns": ["compound", "answer-label"],
 "data": [
  ["CC(=O)NCC1CCN(Cc2cc(Oc3cnc(N4CCN(C)CC4)nc3)cc(-c3cc(Cl)cc(Cl)c3)c2)CC1 [Example 68]", "met"],
  ["CC(=O)NCC1CCN(Cc2cc(Oc3ccc(N4CCN(CCS(C)(=O)=O)CC4)nc3)nc(-c3cc(Cl)cc(Cl)c3)c2)CC1 [Example 12, hydrochloride]", "met"],
  ["CNC(=O)NCC1CCN(Cc2cc(Oc3ccc(N4CCN(CCC(C)S(C)(=O)=O)CC4)nc3)nc(-c3cc(Cl)cc(Cl)c3)c2)CC1 (stereo not shown) [Example 219]", "met"],
  ["CS(=O)(=O)CCCN1CCN(c2ccc(Oc3cc(CN4CCC(CC(=O)O)CC4)cc(-c4cc(Cl)cc(Cl)c4)n3)cn2)CC1 [Example 243]", "met"],
  ["Cc1nc(N2CCN(C)CC2)ncc1Oc1cc(CN2CCC(CC(=O)O)CC2)cc(-c2cc(Cl)cc(Cl)c2)n1 [Example 148]", "not met"],
  ["OCCC1CCN(Cc2cc(Oc3cnc(N4CCNCC4)cn3)nc(-c3cc(Cl)cc(Cl)c3)c2)CC1 [Example 342]", "met"]
]}

Please examine the following record next.
INPUT: I'd appreciate it if you could check whether Cc1c(CN2CCC(CC(=O)O)CC2)cc(-c2cc(Cl)cc(Cl)c2)nc1Oc1ccc(N2CCN(C)CC2)nn1 [Example 371] has EC50 smaller than 0.03 µM.
OUTPUT: not met

---

subject-of-test: furin (endogenous protease) in U20S cells (Homo sapiens)
Construct: the endogenous protease cleaves GFP; endogenous in cells; host or cells: U2OS cells transduced with a BacMam reporter
assay-protocol: Furin cell-based assay (image-based, Golgi-targeted GFP with BMP10 furin/PCSK cleavage site);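 note: Read-out is mean GFP fluorescence of Golgi puncta per cell by high-content imaging, retained when furin inhibited, over an eleven-point 0.00017–10 µM series, four-parameter fit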
study-conditions: 24-hour incubation, read-out: furin golgi cell pXC50 (converted)
Listed below: EC50 values for each entry.
Express the reported value numerically, then name its unit.

{"columns": ["compound", "reported-result"],
 "data": [
  ["O=C(O)CC1CCN(Cc2cc(Oc3cnc(N4CCN5CCC4C5)cn3)nc(-c3cc(Cl)cc(Cl)c3)c2)CC1 (centres unmarked)", "50.1 nM"]
]}

From here, focus on the item given below.
INPUT: // query EC50 value for entry CC(=O)NCC1CCN(Cc2cc(Oc3ccc(N4CCN(C)CC4)nn3)nc(-c3cc(Cl)cc(Cl)c3)c2)CC1
OUTPUT: 1.26 nM

---

subject-of-test: Furin (108-574-Tev-Flag-His) enzyme (Homo sapiens, UniProt P09958)
Construct: Furin (108-574-Tev-Flag-His) enzyme was expressed and purified from CHO cells; TEV cleavage site (C); FLAG (C); His (C); made in house; host or cells: CHO cells
assay-protocol: Furin enzyme assay
Type: biochemical
Structures can show the parent of a compound that is named as a salt.
readout-kind: furin enzyme pIC50
Provide a numeric answer; units are not to be included.

Some solved entries appear below for comparison.
{"columns": ["compound", "subject-of-test", "reported-result"],
 "data": [
  ["CC(=O)NCC1CCN(Cc2cc(Oc3ccc(N4CCNC(C)(C)C4)nc3)nc(-c3cc(Cl)cc(Cl)c3)c2)CC1", "Furin (108-574-Tev-Flag-His) enzyme (Homo sapiens, UniProt P09958)", 9.2],
  ["O=C(O)CC1CCN(Cc2cc(Oc3cnc(N4CCNCC(F)C4)nc3)nc(-c3cc(Cl)cc(Cl)c3)c2)CC1 (stereo not shown)", "Furin (108-574-Tev-Flag-His) enzyme (Homo sapiens, UniProt P09958)", 8.8],
  ["CC(=O)NCC1CCN(Cc2cc(Oc3ccc(N4CCN(CC(=O)O)CC4)nc3)nc(-c3cc(Cl)cc(Cl)c3)c2)CC1 [Example 10, hydrochloride]", "Furin (108-574-Tev-Flag-His) enzyme (Homo sapiens, UniProt P09958)", 8.7],
  ["CS(=O)(=O)NCC1CCN(Cc2cc(Oc3ccc(N4CCN(CCC(=O)O)CC4)nc3)nc(-c3cc(Cl)cc(Cl)c3)c2)CC1", "Furin (108-574-Tev-Flag-His) enzyme (Homo sapiens, UniProt P09958)", 9.5]
]}

INPUT: // query furin enzyme pIC50 value for entry CC(CCO)N1CCN(c2ncc(Oc3cc(CN4CCC(CC(=O)O)CC4)cc(-c4cc(Cl)cc(Cl)c4)n3)cn2)CC1 (stereo not shown)
OUTPUT: 9.8

INPUT: // query furin enzyme pIC50 value for entry CN1CCN(c2cnc(Oc3cc(CN4CCC(OC5(C(=O)O)CC5)CC4)cc(-c4cc(Cl)cc(Cl)c4)n3)cn2)CC1
OUTPUT: 8.1

INPUT: // query furin enzyme pIC50 value for entry CCN1CCCN(c2ccc(Oc3cc(CN4CCC(CC(=O)O)CC4)cc(-c4cc(Cl)cc(Cl)c4)n3)nn2)CC1
OUTPUT: 8.6

Source of measurements: patent US11773078B2
